EXPERIMENTAL SYSTEM: biotin-labeled DsbA (Escherichia coli, UniProt P0AEG4)
Construct: purchased abcam
Sequence (P0AEG4 20-208): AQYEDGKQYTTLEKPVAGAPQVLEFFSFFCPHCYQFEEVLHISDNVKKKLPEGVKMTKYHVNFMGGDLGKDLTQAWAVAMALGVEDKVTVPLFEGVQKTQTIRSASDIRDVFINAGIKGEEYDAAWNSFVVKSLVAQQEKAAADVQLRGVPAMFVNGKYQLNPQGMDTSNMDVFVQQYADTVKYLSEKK
METHOD: Peptide microarray binding of biotin-labeled DsbA, Cy5-streptavidin fluorescence detection
CONDITION LABEL: fluorescent signal intensity measured by peptide microarray
No end group written: not given here.
The threshold is inclusive: SIGNAL INTENSITY of exactly 1000 counts as 1.0; values below receive 0.0.

| SUBSTANCE | LABEL VALUE |
| --- | --- |
| HNWAAQCLKDQAKL-NH2 | 1.0 |
| PSPWATCDF-NH2 | 0.0 |
| VILGQCLKQ-NH2 | 0.0 |

Prompt: # bool: SIGNAL INTENSITY of YVYGMCWKDYTDTDK-NH2 >= 1000
Response: 1.0

Prompt: Another substance to check: DFWHGDTCKVTQFDQ-NH2
Response: 1.0

Prompt: Another substance: SIIGMCYKKDPS-NH2
Response: 1.0

Prompt: Then what about the substance VIGQCLKN-NH2 ?
Response: 0.0

Prompt: Also, DFWHGETCKVTQFDQ-NH2 please.
Response: 1.0

Prompt: Then NDYQYKGQQCLDPKY-NH2 ?
Response: 1.0

# credit: patent US12595591B2
